All values here come from paper PMC12163822.

- TARGET_SYSTEM: cannabinoid receptors
- EXPERIMENT_SUMMARY: [3H]CP55,940 competition binding in rat brain cortex membrane homogenates
- Parameters: species or system Sprague-Dawley rat
- CONDITION_NOTES: high-affinity site of two-site fit, vs [3H]CP55,940, rat brain cortex membranes; read-out: IC50Hi
PROPERTY_LABEL: IC50 (nM)
One number for each entry, in nM.

Fill in the blank: the reported IC50 of CCOC(=O)/C=C1\C(=O)Nc2ccc(C)cc2-c2c1c1cc(OC)ccc1n2C(=O)OCC is ____.
0.026

---

- TARGET_SYSTEM: UniProtKB P21554
- Sequence (P21554 whole entry): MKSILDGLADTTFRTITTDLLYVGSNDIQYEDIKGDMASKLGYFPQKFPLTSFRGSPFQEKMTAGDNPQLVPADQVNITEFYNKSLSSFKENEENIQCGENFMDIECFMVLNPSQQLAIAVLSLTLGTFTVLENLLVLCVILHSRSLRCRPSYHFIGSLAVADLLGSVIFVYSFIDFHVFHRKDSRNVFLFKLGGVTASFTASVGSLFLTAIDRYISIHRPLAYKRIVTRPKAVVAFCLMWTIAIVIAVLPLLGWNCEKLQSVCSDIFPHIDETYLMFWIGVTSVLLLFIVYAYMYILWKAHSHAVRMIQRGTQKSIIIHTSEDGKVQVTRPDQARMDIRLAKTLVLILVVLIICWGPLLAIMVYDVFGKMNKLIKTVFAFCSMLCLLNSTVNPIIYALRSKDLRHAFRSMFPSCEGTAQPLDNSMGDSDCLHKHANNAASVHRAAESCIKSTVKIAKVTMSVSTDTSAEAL
- EXPERIMENT_SUMMARY: [3H]CP55,940 inhibition curves in membranes from CHO cells overexpressing human CB1
PROPERTY_LABEL: IC50 (µM)
Give bare numbers, in µM.

Quick check: IC50 on UniProtKB P21554, item CCOC(=O)/C=C1\C(=O)Nc2ccc(C)cc2-c2c1c1cc(OC)ccc1n2C(=O)OCC ?
4.64

---

- TARGET_SYSTEM: cannabinoid receptors
- EXPERIMENT_SUMMARY: [3H]CP55,940 competition binding in rat brain cortex membrane homogenates
- Parameters: species or system Sprague-Dawley rat
- CONDITION_NOTES: competition vs 0.5 nM [3H]CP55,940, rat brain cortex membranes, one-site fit; read-out: IC50
# fulfilled = IC50 below 6 µM (exclusive); not fulfilled = IC50 at/above 6 µM

# example entries with known answers
CCOC(=O)/C=C1\C(=O)Nc2ccc(F)cc2-c2c1c1cc(C)ccc1n2C(=O)OCC : not fulfilled
CCOC(=O)CC1C(=O)Nc2ccccc2-c2[nH]c3ccccc3c21 (stereo not shown) : fulfilled
COc1ccc2[nH]c3c(c2c1)/C(=C/C(=O)O)C(=O)Nc1ccc(C)cc1-3 : not fulfilled

Determine if CCOC(=O)CC1c2c([nH]c3ccccc23)-c2ccccc2-n2c(C)nnc21 (stereo not shown) shows IC50 strictly lower than 6 µM.
fulfilled

Determine if O=C(O)/C=C1\C(=O)Nc2ccccc2-c2[nH]c3ccccc3c21 shows IC50 strictly lower than 6 µM.
not fulfilled

Determine if CCOC(=O)/C=C1\C(=O)Nc2ccccc2-c2c1c1ccccc1n2C(=O)OCC shows IC50 strictly lower than 6 µM.
not fulfilled
